The reported numbers originate from the supplement of paper PMC10065799.

TESTED_ON: FGFR1 (UniProt P11362)
Sequence (P11362 whole entry, looked up): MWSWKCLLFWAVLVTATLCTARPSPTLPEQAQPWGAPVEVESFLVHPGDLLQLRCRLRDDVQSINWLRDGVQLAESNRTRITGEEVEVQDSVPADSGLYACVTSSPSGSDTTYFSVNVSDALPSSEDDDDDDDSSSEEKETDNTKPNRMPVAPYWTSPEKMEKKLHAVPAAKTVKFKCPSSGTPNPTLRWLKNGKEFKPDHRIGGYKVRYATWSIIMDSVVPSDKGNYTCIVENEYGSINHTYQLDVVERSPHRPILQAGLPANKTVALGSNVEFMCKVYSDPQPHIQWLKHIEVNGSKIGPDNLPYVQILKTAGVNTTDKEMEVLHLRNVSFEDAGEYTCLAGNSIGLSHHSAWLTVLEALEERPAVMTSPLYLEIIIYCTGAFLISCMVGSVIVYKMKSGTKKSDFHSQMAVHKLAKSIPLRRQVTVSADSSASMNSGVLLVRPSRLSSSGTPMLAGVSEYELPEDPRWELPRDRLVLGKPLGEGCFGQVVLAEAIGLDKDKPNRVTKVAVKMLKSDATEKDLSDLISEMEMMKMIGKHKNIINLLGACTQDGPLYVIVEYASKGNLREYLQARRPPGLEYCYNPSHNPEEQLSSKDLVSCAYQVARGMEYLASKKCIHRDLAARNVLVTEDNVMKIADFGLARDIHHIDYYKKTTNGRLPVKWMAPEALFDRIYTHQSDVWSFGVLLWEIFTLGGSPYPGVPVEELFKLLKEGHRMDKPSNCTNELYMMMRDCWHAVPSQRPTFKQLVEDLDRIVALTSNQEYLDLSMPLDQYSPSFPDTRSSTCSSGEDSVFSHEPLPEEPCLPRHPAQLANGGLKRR
ASSAY_NOTES: phosphorylation enrichment, bacterial display (enrichment ratio); higher = better substrate or ligand; peptides without Tyr show the background;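 further: 11-residue human phosphosite peptides and single-mutation variants displayed on the E. coli surface, counted by deep sequencing, each peptide's frequency after selection divided by its frequency in the unselected input library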;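 further: frequency after pTyr selection over input frequency; kinase dosed for 20-30% of maximal phosphorylation in three min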
# if value of phosphorylation enrichment reaches 0.6, tag True; if it stays below, tag False

## Task Would you say FAGRDYSLDEF [MYOF_Y1705_G1701A_YF] shows phosphorylation enrichment at minimum 0.6?
## Result False

## Task Same lookup for FCVDCYKNFVA [FHL1_Y213_YF] , please.
## Result False

## Task Same lookup for SLNEVYTKNKT [MSH2_Y563_E562V] , please.
## Result False

## Task Same lookup for PSALGYSPSLH [LLGL2_Y40_R45H] , please.
## Result False

## Task Same lookup for GANSEYIIAEK [ECHS1_Y35_F33S] , please.
## Result False

====

Tested on: c-Src
ASSAY_NOTES: phosphorylation enrichment, bacterial display (enrichment ratio); higher = better substrate or ligand; peptides without Tyr show the background
MEASUREMENT_KIND: phosphorylation enrichment
Answer as a number with no unit attached.

Use these answered entries as a reference point.
SEQ	phosphorylation enrichment
YCRITYDIFPF [INTS13_Y67_M66T]	2.57
ANAFIYVVQLP [L1CAM_Y420_YF]	0.678
LYNQDYPIHCV [GATM_Y227_S231C]	0.558

## Task Notebook entry, c-Src assay: phosphorylation enrichment of PSQRHYVYYYS [PTEN_Y174_R173H] = ?
## Result 4.77

## Task Same lookup for VREIRYQGGNR [VWF_Y1570] , please.
## Result 0.495

## Task Same lookup for YGSGNYNVFGN [HNRNPA2B1_Y300_D302V] , please.
## Result 0.653

## Task Same lookup for VEGIGYDFIPT [CBS_Y308] , please.
## Result 0.539

## Task Same lookup for FCVVRYCWLRR [MPZ_Y181_Y177C] , please.
## Result 0.738

## Task Same lookup for LEQDEYALHSH [HADHB_Y244_R247H] , please.
## Result 0.665

## Task Same lookup for TLLERYGMIEI [ACSF3_Y355_T358I] , please.
## Result 0.472

## Task Same lookup for REGAKYVSHDA [ASS1_Y113_G117D] , please.
## Result 0.565

====

TESTED_ON: FGFR3 (UniProt P22607)
Sequence (P22607 whole entry, looked up): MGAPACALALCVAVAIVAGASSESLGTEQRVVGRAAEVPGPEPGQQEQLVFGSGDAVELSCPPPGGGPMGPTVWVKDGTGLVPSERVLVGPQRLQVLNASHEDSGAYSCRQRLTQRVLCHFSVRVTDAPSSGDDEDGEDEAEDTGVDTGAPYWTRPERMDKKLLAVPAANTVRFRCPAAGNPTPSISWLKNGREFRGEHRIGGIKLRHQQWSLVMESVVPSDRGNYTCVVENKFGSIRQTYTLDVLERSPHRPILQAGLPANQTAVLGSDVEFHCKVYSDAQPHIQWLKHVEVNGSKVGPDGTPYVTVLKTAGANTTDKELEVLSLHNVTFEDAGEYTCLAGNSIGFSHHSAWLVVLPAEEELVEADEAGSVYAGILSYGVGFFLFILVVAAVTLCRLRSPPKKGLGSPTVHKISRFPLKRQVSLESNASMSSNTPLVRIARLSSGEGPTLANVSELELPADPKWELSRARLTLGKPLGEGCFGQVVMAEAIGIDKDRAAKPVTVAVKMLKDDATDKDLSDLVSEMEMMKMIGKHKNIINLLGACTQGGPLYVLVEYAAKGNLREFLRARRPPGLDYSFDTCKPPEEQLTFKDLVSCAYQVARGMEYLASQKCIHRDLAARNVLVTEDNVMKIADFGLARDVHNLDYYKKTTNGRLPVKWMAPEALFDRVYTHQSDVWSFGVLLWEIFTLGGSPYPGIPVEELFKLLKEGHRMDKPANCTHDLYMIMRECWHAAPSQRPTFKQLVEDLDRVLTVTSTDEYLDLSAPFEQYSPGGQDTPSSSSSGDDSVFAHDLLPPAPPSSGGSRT
ASSAY_NOTES: phosphorylation enrichment, bacterial display (enrichment ratio); higher = better substrate or ligand; peptides without Tyr show the background
# if value of phosphorylation enrichment reaches 0.6, tag met; if it stays below, tag not met

Consider the following illustrative entries.
SEQ	CLASSIFICATION
IKNFKYGIEEH [GJA1_Y137_K134N]	not met
RGRSTCYWPRP [GAGE12J_Y9_Y9C]	met
EEVPLYESATT [DCC_Y809_G805E]	met
QSSALYEDCYL [ASS1_Y83_R86C]	met
TNFPLYLRSLE [MTM1_Y71_R69P_YF]	not met

## Task Would you say GGGGGYNCSSG [FUS_Y232_R234C] shows phosphorylation enrichment at minimum 0.6?
## Result met

## Task Same lookup for VLTSKYRGGGG [HBA1_Y141] , please.
## Result not met

## Task Same lookup for VTQEPYELFCE [CBL_Y368_Q367P_YF] , please.
## Result met

## Task Same lookup for VIKDKYPKARY [APTX_Y209] , please.
## Result not met

## Task Same lookup for SFSGEYGGGGG [ZG16_Y30_YF] , please.
## Result not met

## Task Same lookup for PKAWNYELPAT [PROM1_Y34] , please.
## Result not met
